experiment: In vitro cytotoxicity MTT assay; type: cell-based, Chinese hamster; conditions: Chinese hamster, Chinese hamster ovarian (CHO) cells; MTT assay
Catalogue of IC50 at 44 h readings, one per entry.

[
  {
    "molecule": "CCN(CCNc1cc2[nH]c(C3CCOC3)nc2cn1)Cc1ccc(Cl)cc1O (stereo not shown)",
    "IC50 at 44 h": "> 50 µM"
  },
  {
    "molecule": "CCN(CCNc1cc2[nH]c(CC3CC3)nc2cn1)Cc1ccc(Cl)cc1O",
    "IC50 at 44 h": "> 50 µM"
  },
  {
    "molecule": "CCN(CCNc1cc2[nH]c(-c3ccc(C(F)(F)F)nc3)nc2cn1)Cc1ccc(Cl)cc1O",
    "IC50 at 44 h": "> 50 µM"
  },
  {
    "molecule": "CCN(CCNc1cc2[nH]c(C3CCCN3C)nc2cn1)Cc1ccc(Cl)cc1O (stereo not shown)",
    "IC50 at 44 h": "> 50 µM"
  },
  {
    "molecule": "CCN(CCNc1cc2[nH]c(C3CCC(F)(F)CC3)nc2cn1)Cc1ccc(Cl)cc1O",
    "IC50 at 44 h": "> 50 µM"
  },
  {
    "molecule": "CCN(CCNc1cc2[nH]c(C3CCCCCC3)nc2cn1)Cc1ccc(Cl)cc1O",
    "IC50 at 44 h": "50 µM"
  },
  {
    "molecule": "CCN(CCNc1cc2[nH]c(C3CCCC3)nc2cn1)Cc1ccc(Cl)cc1O",
    "IC50 at 44 h": "27.1 µM"
  },
  {
    "molecule": "CCN(CCNc1cc2[nH]c(C3(C)CC3)nc2cn1)Cc1ccc(Cl)cc1O",
    "IC50 at 44 h": "> 50 µM"
  },
  {
    "molecule": "CCN(CCNc1cc2[nH]c(C3(C(F)(F)F)CC3)nc2cn1)Cc1ccc(Cl)cc1O",
    "IC50 at 44 h": "> 50 µM"
  },
  {
    "molecule": "CCN(CCNc1cc2[nH]c(C3CCCCC3)nc2cn1)Cc1ccc(Cl)cc1O",
    "IC50 at 44 h": "> 50 µM"
  }
]

From: paper PMC10111423
